biological target: 17-beta-hydroxysteroid dehydrogenase type 2 (Homo sapiens); experiment: Inhibition of 17beta-HSD2 (unknown origin) expressed in HEK293 cells lysate assessed as residual enzyme activity at 20 uM; type: cell-free
MEASURE_NAME: Activity (%)

Some solved entries appear below for comparison.
smi=Cc1cc(S(=O)(=O)Nc2cc(Cl)ccc2O)ccc1F reported_result=44
smi=COc1ccccc1OS(=O)(=O)c1ccc(C(C)(C)C)cc1 reported_result=51

a = O=S(=O)(Nc1ccc(O)cc1)c1ccc(Cl)cc1
b = Cc1cc(C)c(OCC(=O)N/N=C/c2ccc(O)cc2O)c(Br)c1
c = Cc1ccc(NS(=O)(=O)c2cccc(C(F)(F)F)c2)cc1O
Hi! Can you put these in order of Activity, lowest number first? List the labels in the requested order.
b, c, a
(b: 9%, c: 25%, a: 55%)
